studyTarget: T1, PALB2 C-terminal WD40 domain (UniProt Q86YC2 835-1186)
T1 construct: PALB2 (partner and localizer of BRCA2), C-terminal WD40 beta-propeller domain; as I recall that construct spans about residues 835-1186; methods are in the Supporting Information; also called PALB2 C-terminal domain
T1 sequence: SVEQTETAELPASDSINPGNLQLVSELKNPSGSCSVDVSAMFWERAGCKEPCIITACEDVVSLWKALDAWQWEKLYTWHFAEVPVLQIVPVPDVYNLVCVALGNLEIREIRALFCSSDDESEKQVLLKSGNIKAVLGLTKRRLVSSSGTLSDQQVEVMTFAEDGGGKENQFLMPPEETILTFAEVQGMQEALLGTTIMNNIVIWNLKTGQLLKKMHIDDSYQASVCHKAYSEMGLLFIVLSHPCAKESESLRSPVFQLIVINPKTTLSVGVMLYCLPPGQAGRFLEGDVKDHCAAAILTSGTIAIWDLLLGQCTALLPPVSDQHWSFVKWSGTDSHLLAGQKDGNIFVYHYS
procedureText: fluorescence polarisation; not told for these peptides whether direct (labelled peptide) or displacement (dark peptide at 10 μM added to the PALB2C dilution series with 10 nM fluorescent peptide; competitive binding model); 25 °C
testSettings: both partners purified
pKd: −log10 of the molar value.
propertyLabel: pKd

>>> reportedmeasurement("DLGPISLNWFE (peptide, UniProt P51587 23-33, looked up, BRCA2 residues 23-33; Rink amide beads: probably a C-terminal amide (my surmise); also called absolute minimal peptide; source: synthetic peptide (SPPS, preparative HPLC)) [BRCA(23–33)]")
5.10
